Where these numbers come from: ChEMBL document CHEMBL1144298

These records show pKi for 5-hydroxytryptamine receptor 7 (Rattus norvegicus, UniProt P32305).
Please express pKi as -log10 of the molar concentration.

COc1c(-c2ccc3c(c2)C[C@H](N(C)C)CO3)ccc2ccccc12 = 7.12

Moving on to the next molecule.
**Query** Could you share which pKi value was measured for Cc1cccc(C)c1-c1ccc2c(c1)C[C@H](N(C)C)CO2 ?
**Result** 7.87
